Test: Serum concentrations of ICI 182780 by radioimmunoassay (pharmacokinetics of monthly i.m. depot)
Format: in vivo, human
Settings: human, serum, intramuscular, 250 mg, patient 12 (no change), 250 mg; read-out: Cmax at month 6

[
  {
    "MOLECULE": "C[C@]12CC[C@@H]3c4ccc(O)cc4C[C@@H](CCCCCCCCC[S+]([O-])CCCC(F)(F)C(F)(F)F)[C@H]3[C@@H]1CC[C@@H]2O (stereo partly shown)",
    "U": "ng/mL",
    "Cmax": 12.2
  }
]

---

Experiment: Serum concentrations of ICI 182780 by radioimmunoassay (pharmacokinetics of monthly i.m. depot)
Format: in vivo, human
Details: human, serum, intramuscular, 250 mg, patient 16 (partial response), 250 mg; read-out: Cmax at month 6
Description: Bridsh Journal of Cancer (1996) 74, 300-308 ? […] The agent was administered as a monthly depot intramuscular injection. […] The study was approved by the ethics committees of each clinical centre. […] Tumour response to therapy was evaluated according to UICC criteria (Hayward et al., 1977). […] Body weight was recorded at each monthly review in the majority of patients. […] The study limit of quantification was 0.68 ng ml-'. […] Prolactin was measured by immunoradiometric assay using reagents supplied by Netria. […]

[
  {
    "COMPOUND": "C[C@]12CC[C@@H]3c4ccc(O)cc4C[C@@H](CCCCCCCCC[S+]([O-])CCCC(F)(F)C(F)(F)F)[C@H]3[C@@H]1CC[C@@H]2O (stereo partly shown)",
    "Cmax, ng/mL": 12
  }
]

---

Experiment: Serum concentrations of ICI 182780 by radioimmunoassay (pharmacokinetics of monthly i.m. depot)
Type: in vivo, human
Details: human, serum, intramuscular, 100 mg, patient 3 (partial response), 100 mg dose at entry; read-out: Cmax on entry
MEASURED_ATTRIBUTE: Cmax (ng/mL)

[
  {
    "COMPOUND": "C[C@]12CC[C@@H]3c4ccc(O)cc4C[C@@H](CCCCCCCCC[S+]([O-])CCCC(F)(F)C(F)(F)F)[C@H]3[C@@H]1CC[C@@H]2O (stereo partly shown)",
    "READING": 2.9
  }
]

---

Test: Serum concentrations of ICI 182780 by radioimmunoassay (pharmacokinetics of monthly i.m. depot)
Format: in vivo, human
Conditions: human, serum, intramuscular, 100 mg, patient 2 (no change), 100 mg dose at entry; read-out: Cmax on entry

[
  {
    "MOLECULE": "C[C@]12CC[C@@H]3c4ccc(O)cc4C[C@@H](CCCCCCCCC[S+]([O-])CCCC(F)(F)C(F)(F)F)[C@H]3[C@@H]1CC[C@@H]2O (stereo partly shown)",
    "Cmax, ng/mL": 1.8
  }
]

---

Assay: Serum concentrations of ICI 182780 by radioimmunoassay (pharmacokinetics of monthly i.m. depot)
Assay type: in vivo, human
Settings: human, serum, intramuscular, 250 mg, patient 18 (no change), 250 mg; read-out: Cmax on entry

[
  {
    "COMPOUND": "C[C@]12CC[C@@H]3c4ccc(O)cc4C[C@@H](CCCCCCCCC[S+]([O-])CCCC(F)(F)C(F)(F)F)[C@H]3[C@@H]1CC[C@@H]2O (stereo partly shown) [ICI 182780]",
    "Cmax (ng/mL)": 10.3
  }
]
